biological target: Estrogen receptor (Homo sapiens) (UniProt P03372); assay: qHTS assay for small molecule antagonists of estrogen receptor alpha signaling (AID 588513); conditions: ER-alpha-UAS-bla HEK293, beta-lactamase ratio, antagonist mode; series mostly up to 76.9 µM
Sequence (P03372 whole entry, looked up): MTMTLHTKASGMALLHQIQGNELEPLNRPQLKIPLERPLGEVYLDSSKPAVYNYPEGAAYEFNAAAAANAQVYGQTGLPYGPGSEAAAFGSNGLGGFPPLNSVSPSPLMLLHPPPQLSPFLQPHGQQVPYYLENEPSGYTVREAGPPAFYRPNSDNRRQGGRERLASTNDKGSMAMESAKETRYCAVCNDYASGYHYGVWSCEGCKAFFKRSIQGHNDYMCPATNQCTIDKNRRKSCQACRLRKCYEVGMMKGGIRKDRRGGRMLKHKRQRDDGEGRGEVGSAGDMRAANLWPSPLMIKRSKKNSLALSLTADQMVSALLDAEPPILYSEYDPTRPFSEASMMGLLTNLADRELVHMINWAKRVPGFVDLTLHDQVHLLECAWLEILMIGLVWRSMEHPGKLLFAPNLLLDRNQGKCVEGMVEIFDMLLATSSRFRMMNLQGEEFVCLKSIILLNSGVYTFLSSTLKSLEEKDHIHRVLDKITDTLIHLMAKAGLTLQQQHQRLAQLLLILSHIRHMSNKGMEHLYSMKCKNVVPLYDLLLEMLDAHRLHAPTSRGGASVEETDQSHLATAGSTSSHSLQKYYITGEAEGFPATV
Calls of active or inactive are those of the source. Calls come from the whole dose curve; as a rule, active = well fitted curve in the direction sought with a large enough effect in the signal ratio, with a control signal flat (not every such curve was filed as active); inconclusive = small, poorly fitted or top-dose-only effect, or effect the other way, or a change in a side signal; inactive = no such curve, though single readings can be large or run the other way; the % refers to the signal ratio.
Give one outcome, nothing more. List: T (active), F (inactive)

Would you please look over these solved cases?
# smiles-input, classification
measured = [
    ("NC(N)=NC(N)=NCCc1ccccc1", "F"),
    ("CC1=NN(c2ccccc2)C(=O)C1", "F"),
    ("CN(C)c1ccc(C(=C2C=CC(=[N+](C)C)C=C2)c2ccc(N(C)C)cc2)cc1", "T"),
]

Request: Which result was noted for this compound in the test: C[C@]12C=CC(=O)C=C1CC[C@@H]1[C@@H]2C(=O)C[C@@]2(C)[C@H]1CC[C@]2(O)C(=O)CO
Result: F

Request: Which result was noted for this compound in the test: O=C(N[C@H](CO)[C@H](O)c1ccc([N+](=O)[O-])cc1)C(Cl)Cl
Result: F

Request: Which result was noted for this compound in the test: Cc1nnc(NS(=O)(=O)c2ccc(N)cc2)s1
Result: F

Request: Which result was noted for this compound in the test: CC(=O)Oc1ccccc1C(=O)Nc1ncc([N+](=O)[O-])s1
Result: F

Request: Which result was noted for this compound in the test: CC[C@H](C)C(=O)O[C@H]1C[C@@H](C)C=C2C=C[C@H](C)[C@H](CC[C@@H]3C[C@@H](O)CC(=O)O3)[C@H]21
Result: F

Request: Which result was noted for this compound in the test: NNC(=O)c1ccncc1
Result: F

----------
system: JEG-3; test: Primary qHTS to identify gynecologic anti-cancer compounds using libraries of approved drugs and bioactive compounds (AID 1345084); conditions: Gynecologic cancer cell panel viability, ATPlite luminescence, 48 h; series mostly up to 57.5 µM; note: nearly all actives have a fitted effect of over 55% in size
Inconclusive results are not listed. Calls of active or inactive are those of the source. Calls come from the whole dose curve; as a rule, active = well fitted cell-killing curve with a large enough effect; inconclusive = small, poorly fitted or top-dose-only effect, or effect the other way; inactive = flat fitted curve, though single readings scatter.
Give one outcome, nothing more. List: True (active), False (inactive)

Would you please look over these solved cases?
# smiles-input, classification
data = [
    ("Nc1nc(F)nc2c1ncn2[C@@H]1O[C@H](CO)[C@@H](O)[C@@H]1O", "False"),
    ("CN1CCN(c2c(F)cc3c(=O)c(C(=O)O)cn(CCF)c3c2F)CC1", "False"),
    ("CCC(=O)O[C@]1(C(=O)SCF)[C@H](C)C[C@H]2[C@@H]3C[C@H](F)C4=CC(=O)C=C[C@]4(C)[C@@]3(F)[C@@H](O)C[C@@]21C", "False"),
    ("CCn1cc(C(=O)O)c(=O)c2cc(F)c(N3CCNCC3)nc21", "False"),
    ("CC1(C)[C@H](C(=O)O)N2C(=O)C[C@H]2S1(=O)=O", "False"),
]

Request: Which result was noted for this compound in the test: CN(C)CCc1c[nH]c2ccc(CS(=O)(=O)N3CCCC3)cc12
Result: False

Request: Which result was noted for this compound in the test: CCCc1cc(C(N)=S)ccn1
Result: False

Request: Which result was noted for this compound in the test: CCC(=O)O[C@]1(C(=O)CCl)[C@@H](C)C[C@H]2[C@@H]3CCC4=CC(=O)C=C[C@]4(C)[C@@]3(F)[C@@H](O)C[C@@]21C
Result: False

Request: Which result was noted for this compound in the test: CN(C)c1ccc(C(=C2C=CC(=[N+](C)C)C=C2)c2ccc(N(C)C)cc2)cc1
Result: True

These entries and their values trace back to PubChem BioAssay (NCATS).
